B1: INTS3 (parent)
chain: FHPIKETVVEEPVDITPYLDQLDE

- Variants of: B1
- EXPERIMENTAL PROTOCOL: protein stability index of a GFP-peptide fusion (GPS, HEK-293T) (PSI 1-6); higher = more stable;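 also: lentivirally expressed fusions sorted by FACS into six bins by GFP to DsRed ratio, PSI derived from sequencing read proportions per bin multiplied by bin number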
- TEST SETTINGS: c terminus: a fixed tail appended
Binary classification by protein stability index, with 3 as an inclusive lower bound for class 1; all other cases are class 0.

INSERT INTO measurements (sequence_chain, class_assignment) VALUES
  ('FHPIKEGVVEEPVDITPYLDQLDE [T7G]', 'class 1'),
  ('FCPIKETVVEEPVDITPYLDQLDE [H2C]', 'class 1'),
  ('FHPIKETVVEEPVDITPYLDQLWE [D23W]', 'class 0'),
  ('FHPIKETVVEEPVDIHPYLDQLDE [T16H]', 'class 0'),
  ('FHPIKETVVEEHVDITPYLDQLDE [P12H]', 'class 1'),
  ('FHPIKETVVEEPVDITWYLDQLDE [P17W]', 'class 1'),
  ('FHPIKETVVDEPVDITPYLDQLDE [E10D]', 'class 1'),
  ('FHPIKDTVVEEPVDITPYLDQLDE [E6D]', 'class 1');

Reported protein stability index at or above 3? FHPIKETVVEEPVDITPYLDQLDM [E24M]
class 0

Reported protein stability index at or above 3? FHEIKETVVEEPVDITPYLDQLDE [P3E]
class 1

Reported protein stability index at or above 3? FHPINETVVEEPVDITPYLDQLDE [K5N]
class 1
